target-desc: activated JNK3 (Homo sapiens)
Construct: One such construct encodes amino acid residues Ser40-Glu402 of JNK3α1 and is preceded by Met and Gly residues; Met-Gly (initiation Met plus Gly added to create the NcoI site) (N); made in house; host or cells: E. coli BL21 (DE3)
Sequence (P53779 40-402): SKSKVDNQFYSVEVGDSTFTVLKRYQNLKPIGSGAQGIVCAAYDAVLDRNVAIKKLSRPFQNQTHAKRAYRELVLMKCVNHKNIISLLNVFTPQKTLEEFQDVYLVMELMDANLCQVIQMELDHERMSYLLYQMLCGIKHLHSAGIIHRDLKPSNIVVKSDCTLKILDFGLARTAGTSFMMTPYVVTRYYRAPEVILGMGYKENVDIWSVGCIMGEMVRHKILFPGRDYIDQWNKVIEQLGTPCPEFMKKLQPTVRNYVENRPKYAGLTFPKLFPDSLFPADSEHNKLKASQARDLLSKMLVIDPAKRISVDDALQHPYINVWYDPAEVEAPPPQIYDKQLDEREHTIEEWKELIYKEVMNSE
assay-method-text: JNK3 inhibition, spectrophotometric coupled-enzyme assay
Type: biochemical
Design: scale not given here
settings: activated JNK3 10 nM, 10 μM ATP, 30° C.; Ki from competitive inhibition model
measurement-name: Activity in the JNK3 Inhibition Assay (Ki rating)

                                     smiles  assay_result
0  COc1ccc(Cl)c(Nc2nccc(-c3c(-c4ccccc4)noc3C)n2)c1           A/B
1  COc1ccc(Nc2nccc(-c3c(-c4ccccc4)noc3C)n2)cc1C           A/B
2  Cc1onc(-c2ccccc2)c1-c1ccnc(Nc2cccc(F)c2C)n1           A/B
3  COc1cccc(-c2noc(C)c2-c2ccnc(Nc3ccccc3)n2)c1OC           B/C
